Assayed system: STAT6 (Homo sapiens (Human), UniProt P42226)
Sequence (P42226 whole entry): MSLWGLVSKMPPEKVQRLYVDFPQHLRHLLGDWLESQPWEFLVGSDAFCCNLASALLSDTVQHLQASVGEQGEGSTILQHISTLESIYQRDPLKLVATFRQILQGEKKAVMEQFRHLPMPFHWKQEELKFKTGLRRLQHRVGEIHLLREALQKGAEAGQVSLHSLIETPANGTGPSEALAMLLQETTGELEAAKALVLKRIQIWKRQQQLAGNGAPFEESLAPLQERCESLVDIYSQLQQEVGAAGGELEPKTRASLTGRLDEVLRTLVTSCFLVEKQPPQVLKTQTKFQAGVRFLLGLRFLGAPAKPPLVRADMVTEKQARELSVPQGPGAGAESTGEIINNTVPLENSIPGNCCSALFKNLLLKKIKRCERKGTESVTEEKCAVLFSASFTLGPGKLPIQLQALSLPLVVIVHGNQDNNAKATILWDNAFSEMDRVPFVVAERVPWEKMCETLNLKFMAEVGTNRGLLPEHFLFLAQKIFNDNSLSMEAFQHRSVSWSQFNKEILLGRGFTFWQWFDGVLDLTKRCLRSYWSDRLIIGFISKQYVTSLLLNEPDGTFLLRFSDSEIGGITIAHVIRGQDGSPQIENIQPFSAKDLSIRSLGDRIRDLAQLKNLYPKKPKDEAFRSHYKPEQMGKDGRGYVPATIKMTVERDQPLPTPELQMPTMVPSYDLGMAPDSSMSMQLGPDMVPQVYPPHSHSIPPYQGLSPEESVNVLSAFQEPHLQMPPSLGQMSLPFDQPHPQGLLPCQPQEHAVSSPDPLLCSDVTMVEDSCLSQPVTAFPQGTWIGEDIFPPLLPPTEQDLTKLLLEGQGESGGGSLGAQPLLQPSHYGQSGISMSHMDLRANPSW
Assay notes: STAT6 degrader assay (HiBiT, HeLa LgBiT clone 4.14)
Assay type: cell-based
Condition notes: HeLa LgBiT clone 4.14, 4-24 h; geometric mean; given for compounds with >80% Emax; read-out: STAT6 degradation DC50
Method: This was a HiBit based assay. A HeLa cell line stably transfected with a small protein, LgBit (Large Bit) was obtained from Promega. These cells express endogenous STAT6. […] Single cell clones were prepared and the clone 4.14 was selected for the assay based on that clone showing high luminescence, high STAT6 phosphorylation upon stimulation with IL-4, and inhibition of luminescence when cells were treated with STAT6 siRNA. […]
Param label: returns MET when DC50 < 1 nM, returns NOT MET otherwise, including exact equality.

- Compound: "C[C@H]1CN(Cc2ccc3c(c2)n(C)c(=O)n3C2CCC(=O)NC2=O)CCN1CC1CCN(C(=O)c2ccc(C3CCN([C@@H](C)c4cc5c(-c6ccc(N)nc6)ccnc5n4C)CC3)cc2)CC1 (some centres unmarked)"
  Label: "MET"
- Compound: "Cn1c(CN2CCC(c3ccc(C(=O)N4CCC(CC5CCN(Cc6ccc7c(c6)n(C)c(=O)n7C6CCC(=O)NC6=O)CC5)CC4)cc3)CC2)cc2c(-c3ccc4[nH]ncc4c3)ccnc21 (centres unmarked)"
  Label: "NOT MET"
- Compound: "Cn1c(CN2CCC(c3ccc(C(=O)N4CCC(CN5CCN(Cc6ccc7c(c6)n(C6CC6)c(=O)n7C6CCC(=O)NC6=O)CC5)CC4)cc3)CC2)cc2c(-c3ccc4[nH]ncc4c3)ccnc21 (centres unmarked)"
  Label: "NOT MET"
- Compound: "CNc1ccc(-c2ccnc3c2cc([C@H](C)N2CCC(c4ccc(C(=O)N5CCC(CN6CCN(Cc7cc8c(cc7F)n([C@H]7CCC(=O)NC7=O)c(=O)n8C)C[C@@H]6C)CC5)cc4)CC2)n3C)cn1"
  Label: "NOT MET"
